Below, each entry is listed with its recorded Intestine.
System: LNCaP tumor-transplanted mouse
Assay: Internal radioactivity distribution using LNCaP tumor-transplanted mouse
Type: in vivo
Conditions: 1 h after administration
The reply should be a number in % ID/g, with the unit left off.

molecule="O=C([O-])CN1CCN(C(CCC(=O)NCCCC[C@H](NC(=O)N[C@@H](CCC(=O)O)C(=O)O)C(=O)O)C(=O)[O-])CCN(CC(=O)[O-])CCN(C(CCC(=O)N[C@@H](CCCCNC(=O)CCCc2ccc(I)cc2)C(=O)O)C(=O)[O-])CC1.[111In+3] (stereo partly drawn) [[^111In]In-PSMA-DA1]" targetentity="LNCaP tumor-transplanted mouse" measuredendpoint=Intestine measureunit="% ID/g" testvalue=2.63
molecule="O=C(O)CC[C@H](NC(=O)N[C@@H](CCCCNC(=O)[C@H](Cc1ccc2ccccc2c1)NC(=O)[C@H]1CC[C@H](CNC(=O)CCC(C(=O)O)N2CCN(CC(=O)O)CCN(C(CCC(=O)N[C@@H](CCCCNC(=O)CCCc3ccc(I)cc3)C(=O)O)C(=O)O)CCN(CC(=O)O)CC2)CC1)C(=O)O)C(=O)O (stereo partly drawn) [[^111In]In-PSMA-NAT-DA1, metal not drawn]" targetentity="LNCaP tumor-transplanted mouse" measuredendpoint=Intestine measureunit="% ID/g" testvalue=3.40
molecule="O=C([O-])CN(CCN(CCc1ccc(NC(=O)CCCCCNC(=O)CCC(=O)NCCCC[C@H](NC(=O)N[C@@H](CCC(=O)O)C(=O)O)C(=O)O)cc1)CCN(CC(=O)[O-])Cc1cccc(C(=O)[O-])n1)Cc1cccc(C(=O)[O-])n1.[111In+3] [[^111In]In-Neunpa-1, reference compound]" targetentity="LNCaP tumor-transplanted mouse" measuredendpoint=Intestine measureunit="% ID/g" testvalue=0.47
molecule="O=C([O-])CN(Cc1cccc(C(=O)[O-])n1)C[C@H](Cc1ccc(NC(=O)CCCCCNC(=O)CCC(=O)NCCCC[C@H](NC(=O)N[C@@H](CCC(=O)O)C(=O)O)C(=O)O)cc1)N(CC(=O)[O-])Cc1cccc(C(=O)[O-])n1.[111In+3] [[^111In]In-Octapa-1, reference compound]" targetentity="LNCaP tumor-transplanted mouse" measuredendpoint=Intestine measureunit="% ID/g" testvalue=0.40
molecule="O=C([O-])CN(CCN(CCc1ccc(NC(=O)[C@H](CCCCNC(=O)CCC(=O)NCCCC[C@H](NC(=O)N[C@@H](CCC(=O)O)C(=O)O)C(=O)O)NC(=O)CCCc2ccc(I)cc2)cc1)CCN(CC(=O)[O-])Cc1cccc(C(=O)[O-])n1)Cc1cccc(C(=O)[O-])n1.[111In+3] [[^111In]In-Neunpa-2]" targetentity="LNCaP tumor-transplanted mouse" measuredendpoint=Intestine measureunit="% ID/g" testvalue=1.22
molecule="O=C([O-])CN1CCN(C(CCC(=O)NCCCC[C@H](NC(=O)N[C@@H](CCC(=O)O)C(=O)O)C(=O)O)C(=O)[O-])CCN(CC(=O)[O-])CCN(C(CCC(=O)Nc2ccccc2)C(=O)[O-])CC1.[111In+3] (stereo partly drawn) [[^111In]In-PSMA-DB, reference compound]" targetentity="LNCaP tumor-transplanted mouse" measuredendpoint=Intestine measureunit="% ID/g" testvalue=0.59

Task item: May I ask what Intestine has been recorded for O=C([O-])CN(Cc1cccc(C(=O)[O-])n1)C[C@H](Cc1ccc(NC(=O)[C@H](CCCCNC(=O)CCC(=O)NCCCC[C@H](NC(=O)N[C@@H](CCC(=O)O)C(=O)O)C(=O)O)NC(=O)COCCOCCOCC(=O)N[C@@H](CCCCNC(=O)CCCc2ccc(I)cc2)C(=O)O)cc1)N(CC(=O)[O-])Cc1cccc(C(=O)[O-])n1.[111In+3] [[^111In]In-Octapa-3] ?
Reply: 2.60

Task item: I am curious: what Intestine value has been reported for O=C([O-])CN1CCN(C(CCC(=O)NCCC(=O)N2Cc3ccccc3-c3c(nnn3CCOCCOCCOCCOCCC(=O)NCCCC[C@H](NC(=O)N[C@@H](CCC(=O)O)C(=O)O)C(=O)O)-c3ccccc32)C(=O)[O-])CCN(CC(=O)[O-])CCN(C(CCC(=O)N[C@@H](CCCCNC(=O)CCCc2ccc(I)cc2)C(=O)O)C(=O)[O-])CC1.[111In+3] (stereo partly drawn) [[^111In]In-PtDA] ?
Reply: 2.66

Task item: # lookup: Intestine of O=C([O-])CN(Cc1cccc(C(=O)[O-])n1)C[C@H](Cc1ccc(NC(=O)[C@H](CCCCNC(=O)CCC(=O)NCCCC[C@H](NC(=O)N[C@@H](CCC(=O)O)C(=O)O)C(=O)O)NC(=O)CCCc2ccc(I)cc2)cc1)N(CC(=O)[O-])Cc1cccc(C(=O)[O-])n1.[111In+3] [[^111In]In-Octapa-2]
Reply: 1.55
